Assay: VSV-G qHTS counterscreen for inhibitors of SARS-S pseudo-typed particle cell entry
Details: VSV-G pseudotyped particle entry counterscreen, luciferase; series mostly up to 57.1 µM
Inconclusive results are not listed. The source made the active and inactive calls. Calls follow the shape of the full dose curve.
Listed here: items and their measured Potency.

Item under review: "CC(=O)N1CCN(c2ccc(OC[C@H]3CO[C@](Cn4ccnc4)(c4ccc(Cl)cc4Cl)O3)cc2)CC1" . Reported Potency?
19.2 µM (active)

Please give the result for "CCN(CC)CCNC(=O)c1c(C)[nH]c(/C=C2\C(=O)Nc3ccc(F)cc32)c1C" too.
17.1 µM (active)

// query: "C=C1c2c(Cl)ccc(O)c2C(O)=C2C(=O)[C@@]3(O)C(O)=C(C(N)=O)C(=O)[C@@H](N(C)C)[C@@H]3[C@@H](O)[C@H]12"
15.2 µM (active)

----------
Assay: VSV-G qHTS counterscreen for inhibitors of SARS-S pseudo-typed particle cell entry
Settings: VSV-G pseudotyped particle entry counterscreen, luciferase; series mostly up to 57.1 µM
Inconclusive results are not listed. Active and inactive are the calls of the source. Calls follow the shape of the full dose curve.
Bench note: report the call from active, inactive

Given "CCCCN=C(N)N=C(N)N" , state the outcome it received in this test.
inactive

Can you check "C[C@@H]1CCO[C@H]2Cn3cc(C(=O)NCc4ccc(F)cc4F)c(=O)c(O)c3C(=O)N12" next?
active

Next entry: "CC(=O)[C@]1(O)Cc2c(O)c3c(c(O)c2[C@@H](O[C@H]2C[C@H](N)[C@H](O)[C@H](C)O2)C1)C(=O)c1ccccc1C3=O"
active

----------
Assay: VSV-G qHTS counterscreen for inhibitors of SARS-S pseudo-typed particle cell entry
Details: VSV-G pseudotyped particle entry counterscreen, luciferase; series mostly up to 57.1 µM
Results filed as inconclusive are left out. Activity calls are given as the source filed them. Calls follow the shape of the full dose curve.
A correct response names exactly one class from true (1) (active), false (0) (inactive)

Example entries and their recorded answers appear below.
| COMPOUND | CLASS |
| --- | --- |
| CC(C)OC(=O)[C@H](C)N[P@](=O)(CO[C@H](C)Cn1cnc2c(N)ncnc21)Oc1ccccc1 | true (1) |
| C[C@]12CC[C@H](O)C[C@H]1CCC1C2CC[C@]2(C)[C@@H](c3ccc(=O)oc3)C[C@H]3O[C@]132 (stereo partly drawn) | true (1) |

Tell me the recorded outcome of this test for "Cc1oncc1C(=O)Nc1ccc(C(F)(F)F)cc1" .
false (0)

And the next one, COc1cc([C@@H]2c3cc4c(cc3C(O[C@@H]3O[C@@H]5CO[C@@H](c6cccs6)OC5[C@H](O)[C@H]3O)C3COC(=O)[C@@H]32)OCO4)cc(OC)c1O (stereo partly drawn) ?
true (1)

Repeat with "N=C(N)c1ccc(OCCCCCOc2ccc(C(=N)N)cc2)cc1"
true (1)

Field entry: "COc1cc2nccc(Oc3ccc(NC(=O)C4(C(=O)Nc5ccc(F)cc5)CC4)cc3)c2cc1OC"
true (1)

Please do the same for "COc1ccc2cc3[n+](cc2c1OC)CCc1cc2c(cc1-3)OCO2" as well.
true (1)

Request: "CC[C@@H]([C@H](C)O)n1ncn(-c2ccc(N3CCN(c4ccc(OC[C@@H]5CO[C@@](Cn6cncn6)(c6ccc(F)cc6F)C5)cc4)CC3)cc2)c1=O"
true (1)

----------
Assay: VSV-G qHTS counterscreen for inhibitors of SARS-S pseudo-typed particle cell entry
Settings: VSV-G pseudotyped particle entry counterscreen, luciferase; series mostly up to 57.1 µM
Results filed as inconclusive are left out. The source made the active and inactive calls. The call rests on the fitted dose curve.
// allowed return values: yes (1) (active), no (0) (inactive)

Solved cases below.
| COMPOUND | CLASS |
| --- | --- |
| Nc1nc(Cl)nc2c1ncn2C1CC(O)C(CO)O1 (stereo unspecified) | yes (1) |
| CC(CN(C)C)CN1c2ccccc2CCc2ccccc21 (stereo unspecified) | no (0) |
| N#CC(c1ccc(Cl)cc1)c1c(Cl)cc(-n2ncc(=O)[nH]c2=O)cc1Cl (stereo unspecified) | yes (1) |
| C=C(C)[C@H]1Cc2c(ccc3c2O[C@@H]2COc4cc(OC)c(OC)cc4[C@@H]2C3=O)O1 | yes (1) |
| O=C1CCc2ccc(OCCCCN3CCN(c4cccc(Cl)c4Cl)CC3)cc2N1 | yes (1) |
| C/C=C(/C)C(=O)O[C@H]1C(C)=CC23C(=O)C(C=C(CO)[C@@H](O)[C@]12O)[C@H]1[C@@H](C[C@H]3C)C1(C)C (stereo partly specified) | yes (1) |
| CO[C@@]12[C@H](COC(N)=O)C3=C(C(=O)C(C)=C(N)C3=O)N1C[C@@H]1N[C@@H]12 | yes (1) |
| COc1cc(NS(C)(=O)=O)ccc1Nc1c2ccccc2nc2ccccc12 | yes (1) |

Recorded call for "Cc1nnc(C(=O)NC(C)(C)c2nc(C(=O)NCc3ccc(F)cc3)c(O)c(=O)n2C)o1" ?
yes (1)

Repeat for the following compound: "O=C(Nc1ccc([N+](=O)[O-])cc1Cl)c1cc(Cl)ccc1O"
yes (1)

Request: "CC(C)(C)C(=O)OCOP(=O)(COCCn1cnc2c(N)ncnc21)OCOC(=O)C(C)(C)C"
yes (1)

Here is the next compound: "C[C@@H](c1nc(-c2ccc(C#N)cc2)cs1)[C@](O)(Cn1cncn1)c1cc(F)ccc1F"
yes (1)

----------
Assay: VSV-G qHTS counterscreen for inhibitors of SARS-S pseudo-typed particle cell entry
Settings: VSV-G pseudotyped particle entry counterscreen, luciferase; series mostly up to 57.1 µM
Results filed as inconclusive are left out. Activity calls are given as the source filed them. The call rests on the fitted dose curve.
Field 'call' accepts active, inactive

The following compounds have reported results that may help.
| COMPOUND | CLASS |
| --- | --- |
| COc1cccc2c1C(=O)c1c(O)c3c(c(O)c1C2=O)C[C@@](O)(C(=O)CO)C[C@@H]3O[C@H]1C[C@H](N)[C@@H](O)[C@H](C)O1 | active |
| C=CC1(C)CC(=O)C2(O)C(C)(O1)C(OC(C)=O)C(OC(=O)CCN(C)C)C1C(C)(C)CCC(O)C12C (centres undefined) | inactive |
| Nc1ccn([C@@H]2O[C@H](CO)[C@@H](O)C2(F)F)c(=O)n1 | active |
| COC(=O)C[C@](O)(CCCC(C)(C)O)C(=O)O[C@@H]1C(OC)=C[C@]23CCCN2CCc2cc4c(cc2[C@H]13)OCO4 | active |
| CC[C@@]1(O)C(=O)OCc2c1cc1n(c2=O)Cc2cc3c(CN(C)C)c(O)ccc3nc2-1 | active |

Okay, next one:
For Cc1nnc2n1-c1sc(CCc3ccc(CC(C)C)cc3)cc1C(c1ccccc1Cl)=NC2C (centres undefined) , which call appears in the assay record?
active

----------
Assay: VSV-G qHTS counterscreen for inhibitors of SARS-S pseudo-typed particle cell entry
Conditions: VSV-G pseudotyped particle entry counterscreen, luciferase; series mostly up to 57.1 µM
Inconclusive results are not listed. The source made the active and inactive calls. The call rests on the fitted dose curve.
Select the matching outcome among 1.0 (active), 0.0 (inactive)

# count of solved cases: 3
| COMPOUND | CLASS |
| --- | --- |
| Cc1c(N)nc(C(CC(N)=O)NCC(N)C(N)=O)nc1C(=O)NC(C(=O)NC(C)C(O)C(C)C(=O)NC(C(=O)NCCc1nc(-c2nc(C(=O)NCCCN[C@@H](C)c3ccccc3)cs2)cs1)C(C)O)C(O[C@@H]1O[C@@H](CO)[C@@H](O)[C@H](O)[C@@H]1O[C@H]1O[C@H](CO)[C@@H](O)[C@H](OC(N)=O)[C@@H]1O)c1cnc[nH]1 (stereo partly drawn) | 1.0 |
| COc1cccc2c1C(=O)c1c(O)c3c(c(O)c1C2=O)C[C@@](O)(C(=O)CO)CC3OC1CC(N2CCOC(OC)C2)C(O)C(C)O1 (stereo partly drawn) | 1.0 |
| CC(=O)Oc1ccccc1C(=O)Nc1ncc([N+](=O)[O-])s1 | 1.0 |

Given CN(C)CCOC(c1ccccc1)c1ccc(Br)cc1 (stereo not drawn) , state the outcome it received in this test.
0.0

----------
Assay: VSV-G qHTS counterscreen for inhibitors of SARS-S pseudo-typed particle cell entry
Conditions: VSV-G pseudotyped particle entry counterscreen, luciferase; series mostly up to 57.1 µM
Records with an inconclusive call do not appear. Activity calls are given as the source filed them. Calls follow the shape of the full dose curve.
Output constraint: value belongs to true (1) (active), false (0) (inactive)

Recorded results for 4 compounds are shown here.
| COMPOUND | CLASS |
| --- | --- |
| CC[C@@]1(O)C(=O)OCc2c1cc1n(c2=O)Cc2c-1nc1ccccc1c2/C=N/OC(C)(C)C | true (1) |
| Oc1c(Cl)cc(Cl)c(Cl)c1Cc1c(O)c(Cl)cc(Cl)c1Cl | true (1) |
| COc1cccc2c1C(=O)c1c(O)c3c(c(O)c1C2=O)C[C@@](O)(C(C)=O)C[C@@H]3O[C@H]1C[C@H](N)[C@H](O)[C@H](C)O1 | true (1) |
| CC[C@@]1(O)C(=O)OCc2c1cc1n(c2=O)Cc2cc3c([N+](=O)[O-])cccc3nc2-1 | true (1) |

# fetch the recorded call for "COc1ccc(Cc2nccc3cc(OC)c(OC)cc23)cc1OC" here
true (1)

What do we get for "CCC(C)(C)C(=O)O[C@H]1C[C@@H](C)C=C2C=C[C@H](C)[C@H](CC[C@@H]3C[C@@H](O)CC(=O)O3)[C@H]21" ?
true (1)

Another compound: "N/C(=N\N=C\c1ccc(Cl)cc1)N/N=C/c1ccc(Cl)cc1"
true (1)

Field entry: "CN1CC[C@H](CN2c3ccccc3Sc3ccccc32)C1"
false (0)

Now give it for C[n+]1c2cc(N)ccc2cc2ccc(N)cc21 (tested in a mixture with another compound) too.
true (1)
